- target_entity: T1, human TREM2 expressed on cells (human, UniProt Q9NZC2 19-230)
- T1 sequence: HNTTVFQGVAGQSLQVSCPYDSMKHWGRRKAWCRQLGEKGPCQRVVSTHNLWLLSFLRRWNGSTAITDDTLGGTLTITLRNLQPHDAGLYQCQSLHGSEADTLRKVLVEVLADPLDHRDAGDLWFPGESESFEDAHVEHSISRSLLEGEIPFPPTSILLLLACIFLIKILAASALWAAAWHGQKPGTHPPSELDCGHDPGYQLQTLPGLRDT
- test_name: cell-based or functional assay
Kindly state EC50 viability, dendritic cells D559 for each of the entries shown.
One number for each entry, in nM.

// below: answered binders
{"binder": "AL2p-47 huIgG1 (antibody, V domains shown) VH: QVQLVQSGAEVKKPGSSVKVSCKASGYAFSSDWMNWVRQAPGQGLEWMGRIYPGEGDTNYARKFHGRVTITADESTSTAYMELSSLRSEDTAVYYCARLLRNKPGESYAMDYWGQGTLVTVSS VL: DVVMTQTPLSLSVTPGQPASISCRTSQSLVHSNAYTYLHWYLQKPGQSPQLLIYKVSNRVSGVPDRFSGSGSGTDFTLKISRVEAEDVGVYYCSQSTRVPYTFGQGTKLEIKR", "experimental_readout": "EC50 viability, dendritic cells D559", "obs_value": 1.13}
{"binder": "AL2p-60 (antibody, IgG1, V domains shown) VH: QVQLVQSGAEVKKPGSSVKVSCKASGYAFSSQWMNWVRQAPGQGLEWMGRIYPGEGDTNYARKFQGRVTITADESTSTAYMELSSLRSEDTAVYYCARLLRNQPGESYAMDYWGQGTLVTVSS VL: GVVMTQTPLSLSVTPGQPASISCRSSQSLVHSNQYTYLHWYLQKPGQSPQLLIYKVSNRRSGVPDRFSGSGSGTDFTLKISRVEAEDVGVYYCSQSTRVPYTFGQGTKLEIK", "experimental_readout": "EC50 viability, dendritic cells D559", "obs_value": 0.244}
{"binder": "AL2p huIgG1 (human mouse chimeric parental antibody) (antibody, V domains shown, Mouse variable region with human IgG1 Fc region; Fab and IgG formats under one id; also called chimeric parental AL2p antibody as huIgG1) VH: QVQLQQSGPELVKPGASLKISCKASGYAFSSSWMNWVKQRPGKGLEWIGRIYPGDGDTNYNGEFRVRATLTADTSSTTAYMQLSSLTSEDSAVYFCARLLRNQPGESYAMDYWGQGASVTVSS VL: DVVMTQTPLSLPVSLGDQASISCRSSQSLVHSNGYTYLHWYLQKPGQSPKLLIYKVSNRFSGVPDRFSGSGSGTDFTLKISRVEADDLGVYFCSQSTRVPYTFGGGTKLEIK", "experimental_readout": "EC50 viability, dendritic cells D559", "obs_value": 41.2}

Shifting focus to the binder that follows.
Problem: EC50 viability, dendritic cells D559 for AL2p-37 (antibody, IgG1, V domains shown, Fab and IgG formats under one id; also called AL2p-37 huIgG1) VH: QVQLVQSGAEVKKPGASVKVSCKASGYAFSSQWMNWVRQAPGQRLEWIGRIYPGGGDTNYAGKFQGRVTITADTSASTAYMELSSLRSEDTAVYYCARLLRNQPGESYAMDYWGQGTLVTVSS VL: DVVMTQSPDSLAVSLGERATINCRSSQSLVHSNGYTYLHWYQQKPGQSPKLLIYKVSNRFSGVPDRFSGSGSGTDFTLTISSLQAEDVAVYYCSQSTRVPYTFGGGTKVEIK ?
Result: 6.16
